ASSAY_TARGET: SIRT1 (Homo sapiens)
Sequence (Q96EB6 whole entry): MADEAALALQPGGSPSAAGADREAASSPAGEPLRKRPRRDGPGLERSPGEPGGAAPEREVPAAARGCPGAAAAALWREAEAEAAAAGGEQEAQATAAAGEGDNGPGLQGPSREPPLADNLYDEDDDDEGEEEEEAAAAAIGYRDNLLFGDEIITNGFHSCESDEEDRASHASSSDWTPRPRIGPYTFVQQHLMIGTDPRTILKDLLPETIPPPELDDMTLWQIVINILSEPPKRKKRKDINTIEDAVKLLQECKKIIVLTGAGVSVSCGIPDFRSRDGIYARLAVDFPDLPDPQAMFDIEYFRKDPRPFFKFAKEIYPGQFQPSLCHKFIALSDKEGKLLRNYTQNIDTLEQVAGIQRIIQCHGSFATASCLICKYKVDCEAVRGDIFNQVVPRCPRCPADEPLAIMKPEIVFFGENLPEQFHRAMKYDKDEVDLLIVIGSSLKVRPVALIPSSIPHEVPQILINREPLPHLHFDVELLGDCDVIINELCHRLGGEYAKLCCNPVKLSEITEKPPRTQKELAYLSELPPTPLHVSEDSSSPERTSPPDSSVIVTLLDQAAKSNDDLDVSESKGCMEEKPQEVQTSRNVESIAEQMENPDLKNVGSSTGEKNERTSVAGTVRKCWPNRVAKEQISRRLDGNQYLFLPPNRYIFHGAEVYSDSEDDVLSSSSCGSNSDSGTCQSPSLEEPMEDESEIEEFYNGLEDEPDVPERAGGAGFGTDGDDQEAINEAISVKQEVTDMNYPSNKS
ASSAY_COMMENT: Mass spectrometry based SIRT1 deacetylase activation assay
Assay type: biochemical
EXPERIMENTAL_CONDITIONS: 0.5 μM peptide substrate, 120 μM βNAD+, 10 nM SIRT1, 25 min, 25° C.
RECORDED_ENDPOINT: EC1.5 μM

compound=Cc1cnc(NC(=O)c2cccc3c(=O)cc(-c4ccccc4S(C)(=O)=O)oc23)s1 recorded_endpoint="EC1.5 μM" recorded_value="C (EC1.5>25 μM)"
compound=O=C(Nc1cccc(CN2CCCC2)n1)c1cccc2c(=O)cc(-c3cccc(C(F)(F)F)c3)oc12 recorded_endpoint="EC1.5 μM" recorded_value="B (EC1.5 1-25 μM)"
compound="O=C1CCC(C(=O)Nc2cccc3c(=O)cc(-c4ccccc4C(F)(F)F)oc23)N1 (centres unmarked)" recorded_endpoint="EC1.5 μM" recorded_value="B (EC1.5 1-25 μM)"
compound=O=c1cc(-c2ccccc2C(F)(F)F)oc2c(NS(=O)(=O)c3cccnc3)cccc12 recorded_endpoint="EC1.5 μM" recorded_value="C (EC1.5>25 μM)"
compound=Cn1ccc(C(=O)Nc2cccc3c(=O)cc(-c4ccccc4C(F)(F)F)oc23)n1 recorded_endpoint="EC1.5 μM" recorded_value="B (EC1.5 1-25 μM)"
compound=O=C(Nc1cccc2c(=O)cc(-c3ccccc3OC(F)F)oc12)c1cscn1 recorded_endpoint="EC1.5 μM" recorded_value="C (EC1.5>25 μM)"
compound=O=C(Nc1cccc2c(=O)cc(-c3ccc(C(F)(F)F)cc3)oc12)c1cscn1 recorded_endpoint="EC1.5 μM" recorded_value="C (EC1.5>25 μM)"
